All values here come from paper PMC12546632.

Reported IC50 values are given for each entry in this list.
# Measurement target: 2C8 (Homo sapiens)
# Construct: from tissue; host or cells: human liver microsomes
# Sequence (P10632 whole entry): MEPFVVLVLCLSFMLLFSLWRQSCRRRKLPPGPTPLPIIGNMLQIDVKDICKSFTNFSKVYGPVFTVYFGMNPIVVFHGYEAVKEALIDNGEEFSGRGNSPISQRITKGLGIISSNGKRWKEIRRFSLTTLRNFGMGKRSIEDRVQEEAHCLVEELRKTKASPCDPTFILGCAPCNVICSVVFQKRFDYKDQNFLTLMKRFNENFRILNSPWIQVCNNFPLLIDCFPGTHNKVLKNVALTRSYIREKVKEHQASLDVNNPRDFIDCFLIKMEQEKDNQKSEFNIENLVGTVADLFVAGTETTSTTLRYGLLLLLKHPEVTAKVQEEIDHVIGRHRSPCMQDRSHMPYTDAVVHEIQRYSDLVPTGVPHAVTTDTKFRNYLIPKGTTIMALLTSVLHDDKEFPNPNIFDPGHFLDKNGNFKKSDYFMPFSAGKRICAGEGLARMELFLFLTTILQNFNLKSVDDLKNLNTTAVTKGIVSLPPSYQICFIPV
# Format: in vitro ADME

**Query** Note IC50 for the compound shown: CCc1nc2ncc(C)cn2c1C(=O)NCc1ccc(N2CCN(S(=O)(=O)C(F)(F)F)C=N2)c(F)c1
**Result** > 20 µM

Next compound, IC50 to be filled in.
**Query** Note IC50 for the compound shown: CCc1nc2ccc(Cl)cn2c1C(=O)NCc1ccc(C2CC3(C2)CN(S(=O)(=O)C(F)(F)F)C3)cc1
**Result** > 10 µM

* * *

# Tested on: HepG2 cells
# Condition: human, 24 h
Parameter measured: IC50

**Query** Note IC50 for the compound shown: CCc1nc2ccc(Cl)cn2c1C(=O)NCc1ccc(C2CC3(C2)CN(S(=O)(=O)C(F)(F)F)C3)cc1
**Result** > 100 µM

* * *

# Assay method text: in vivo
# Condition: female, Balb/c, mouse, po, 5 mg/kg, Cmax, Balb/c mouse, PO 5 mg kg-1, 0.5 w/v Methocel (susp.)
Parameter measured: Cmax (ng/mL)
Give the quantity in ng/mL, number only.

**Query** Note Cmax for the molecule shown: CCc1nc2ccc(Cl)cn2c1C(=O)NCc1ccc(C2CC3(C2)CN(S(=O)(=O)C(F)(F)F)C3)cc1 [JNJ-2901]
**Result** 2660

* * *

# Assay method text: in vivo
# Condition: female, Balb/c, mouse, po, 5 mg/kg, AUC0-inf
Parameter measured: AUC0-inf (ng·h/mL)
Give the quantity in ng·h/mL, number only.

**Query** Note AUC0-inf for the compound shown: CCc1nc2ccc(Cl)cn2c1C(=O)NCc1ccc(C2CC3(C2)CN(S(=O)(=O)C(F)(F)F)C3)cc1
**Result** 38500

* * *

# Assay method text: in vivo
# Condition: female, CD-1, mouse, po, 5 mg/kg, Tmax
Parameter measured: Tmax
Lab note: write values as number then unit, every time.

**Query** Note Tmax for the compound shown: CCc1nc2ccc(Cl)cn2c1C(=O)NCc1ccc(C2CC3(C2)CN(S(=O)(=O)C(F)(F)F)C3)cc1 [JNJ-2901]
**Result** 7 h

* * *

# Assay method text: in vitro
# Condition: human
Parameter measured: IC50 at 24 h

**Query** Note IC50 at 24 h for the molecule shown: CCc1nc2ccc(Cl)cn2c1C(=O)NCc1ccc(C2CC3(C2)CN(S(=O)(=O)C(F)(F)F)C3)cc1
**Result** > 100 µM

* * *

# Assay method text: in vivo
# Condition: female, Balb/c, mouse, po, 5 mg/kg
Parameter measured: Cmax (ng/mL)
Give the quantity in ng/mL, number only.

**Query** Note Cmax for the molecule shown: CCc1nc2ccc(Cl)cn2c1C(=O)NCc1ccc(C2CC3(C2)CN(S(=O)(=O)C(F)(F)F)C3)cc1
**Result** 2310

* * *

# Assay method text: in vivo
# Condition: CD-1, mouse, iv, 1 mg/kg
Parameter measured: MRT (h)
Give the quantity in h, number only.

**Query** Note MRT for the molecule shown: CCc1nc2ccc(Cl)cn2c1C(=O)NCc1ccc(C2CC3(C2)CN(S(=O)(=O)C(F)(F)F)C3)cc1
**Result** 9.1

* * *

# Assay method text: in vitro
# Condition: human
Parameter measured: IC20 at 72 h (µM)
Give the quantity in µM, number only.

**Query** Note IC20 at 72 h for the molecule shown: CCc1nc2ccc(Cl)cn2c1C(=O)NCc1ccc(C2CC3(C2)CN(S(=O)(=O)C(F)(F)F)C3)cc1 [JNJ-2901]
**Result** 11.8
